- Target Or Test System: Peroxisome proliferator-activated receptor gamma (Homo sapiens)
- Protocol Text: Binding affinity to PPARgamma
Outcome Measure: Ki

Compound | Outcome Measure | Endpoint Result
COC1Oc2cc(O)c3c(c2C(=O)N1C(=O)NCc1cccc2ccccc12)OC1=CC(O)=C(C(C)=O)C(=O)[C@]13C (stereo partly specified) | Ki | 82 nM

---

- Target Or Test System: Peroxisome proliferator-activated receptor gamma (Homo sapiens, UniProt P37231)
- Sequence (P37231 whole entry): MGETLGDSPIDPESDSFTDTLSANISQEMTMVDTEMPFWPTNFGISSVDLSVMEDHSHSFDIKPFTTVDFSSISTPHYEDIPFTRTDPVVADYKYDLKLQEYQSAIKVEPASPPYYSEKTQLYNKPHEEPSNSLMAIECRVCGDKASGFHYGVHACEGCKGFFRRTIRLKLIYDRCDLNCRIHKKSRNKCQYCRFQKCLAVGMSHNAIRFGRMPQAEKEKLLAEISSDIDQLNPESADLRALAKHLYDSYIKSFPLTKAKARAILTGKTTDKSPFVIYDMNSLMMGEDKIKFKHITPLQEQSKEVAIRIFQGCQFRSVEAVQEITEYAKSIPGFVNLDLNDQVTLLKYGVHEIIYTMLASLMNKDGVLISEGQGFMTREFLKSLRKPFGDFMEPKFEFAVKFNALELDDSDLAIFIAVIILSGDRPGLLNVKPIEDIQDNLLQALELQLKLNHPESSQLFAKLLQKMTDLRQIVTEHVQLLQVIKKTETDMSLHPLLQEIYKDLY
- Protocol Text: Inhibition of PPARgamma assessed as transcriptional activity
pIC50: −log10 of the molar value.

Compound | pIC50
COC1Oc2cc(O)c3c(c2C(=O)N1C(=O)NCc1ccco1)OC1=CC(O)=C(C(C)=O)C(=O)[C@]13C (stereo partly specified) | 4.89
